Observed EC50 values for Beta-1 adrenergic receptor (Homo sapiens) are listed in what follows.
Express it in nM; write the number only.

Some compounds with known EC50 results, for comparison:
compound	unit-name	EC50
COc1ccc(CCNCC(O)c2ccc(O)c3c2OCC(=O)N3)cc1 (stereo not given)	nM	2.19
CC(C)(C)NCC(O)c1ccc(O)c2c1OCC(=O)N2 (stereo not given)	nM	2.14
O=C1COc2c(C(O)CNCCC(c3ccccc3)c3ccccc3)ccc(O)c2N1 (stereo not given)	nM	2.24
O=C1COc2c(C(O)CNCCCCc3ccccc3)ccc(O)c2N1 (stereo not given)	nM	0.309

// below: EC50 requested for another compound
Short answer for COc1ccccc1CCCNCC(O)c1ccc(O)c2c1OCC(=O)N2 (stereo not given) : EC50 was 0.178

----------
Experiment: MRT in male Balb/c mouse at 2 mg/kg, iv measured upto 24 hrs by LC-MS/MS analysis
Type: ADME, organism-based
Settings: in vivo
measured-property: MRT (h)
Express it in h; write the number only.

Short answer for COc1ccccc1CCNCC(O)c1ccc(O)c2c1OCC(=O)N2.Cl (stereo unspecified) : MRT was 2.67

----------
Assay: Tmax in male Balb/c mouse at 10 mg/kg, po measured upto 24 hrs by LC-MS/MS analysis
Format: ADME, organism-based
Settings: in vivo
measured-property: Tmax (h)
Express it in h; write the number only.

Short answer for COc1ccccc1CCNCC(O)c1ccc(O)c2c1OCC(=O)N2.Cl (stereo unspecified) : Tmax was 5.33

----------
Experiment: Apparent volume of distribution in male Balb/c mouse at 2 mg/kg, iv measured upto 24 hrs by LC-MS/MS analysis
Assay type: ADME, organism-based
Details: in vivo, read-out: Vd(app)
measured-property: Vd
Give the number first and the unit second.

Short answer for COc1ccccc1CCNCC(O)c1ccc(O)c2c1OCC(=O)N2.Cl (stereo unspecified) : Vd was 44 L/kg

----------
Experiment: MRT in male Balb/c mouse at 10 mg/kg, po measured upto 24 hrs by LC-MS/MS analysis
Assay type: ADME, organism-based
Conditions: in vivo
measured-property: MRT (h)
Express it in h; write the number only.

Short answer for COc1ccccc1CCNCC(O)c1ccc(O)c2c1OCC(=O)N2.Cl (stereo unspecified) : MRT was 5.92

----------
Assay: Half life in male Balb/c mouse at 10 mg/kg, po measured upto 24 hrs by LC-MS/MS analysis
Type: ADME, organism-based
Conditions: in vivo
measured-property: half-life (h)
Express it in h; write the number only.

Short answer for COc1ccccc1CCNCC(O)c1ccc(O)c2c1OCC(=O)N2.Cl (stereo unspecified) : half-life was 3.77

----------
Experiment: AUC (0 to t) in male Balb/c mouse at 2 mg/kg, iv measured upto 24 hrs by LC-MS/MS analysis
Format: ADME, organism-based
Conditions: in vivo
measured-property: AUC(0-t) at 24 h

Short answer for COc1ccccc1CCNCC(O)c1ccc(O)c2c1OCC(=O)N2.Cl (stereo unspecified) : AUC(0-t) at 24 h was 0.329 µg·h/mL

----------
Test system: Trachea
Test: Induction of smooth muscle relaxation in male Dunkin-Hartley guinea pig trachea strips assessed as maximal relaxation of histamine phosphate-induced guinea pig airway smooth muscle contraction relative to control
Settings: Cavia porcellus
measured-property: Emax (%)
Express it in %; write the number only.

Some compounds with known Emax results, for comparison:
compound	test-system	Emax [%]
CCCNCC(O)c1ccc(O)c2c1OCC(=O)N2 (configuration not stated)	Trachea	60.5
COc1cc(CCCNCC(O)c2ccc(O)c3c2OCC(=O)N3)cc(OC)c1OC (configuration not stated)	Trachea	142

Short answer for O=C1COc2c(C(O)CNC3CC3)ccc(O)c2N1 (configuration not stated) : Emax was 123

Short answer for COc1ccccc1CCCNCC(O)c1ccc(O)c2c1OCC(=O)N2 (configuration not stated) : Emax was 109

Short answer for O=C1COc2c(C(O)CNCCc3cccc(F)c3)ccc(O)c2N1 (configuration not stated) : Emax was 94.9

Short answer for COc1ccc(CCCNCC(O)c2ccc(O)c3c2OCC(=O)N3)cc1 (configuration not stated) : Emax was 74.2

Short answer for CCCCNCC(O)c1ccc(O)c2c1OCC(=O)N2 (configuration not stated) : Emax was 53.3

Short answer for Cc1ccccc1CCNCC(O)c1ccc(O)c2c1OCC(=O)N2 (configuration not stated) : Emax was 135

Short answer for O=C1COc2c(C(O)CNCCc3ccc(Cl)cc3)ccc(O)c2N1 (configuration not stated) : Emax was 86.7

Short answer for O=C1COc2c(C(O)CNCCc3ccccc3F)ccc(O)c2N1 (configuration not stated) : Emax was 128

Short answer for CC(C)NCC(O)c1ccc(O)c(O)c1 (configuration not stated) [ISOPROTERENOL] : Emax was 141

Short answer for O=C1COc2c(C(O)CNCCCc3cccc(O)c3)ccc(O)c2N1 (configuration not stated) : Emax was 87.4

Short answer for O=C1COc2c(C(O)CNCCCc3ccc(F)cc3)ccc(O)c2N1 (configuration not stated) : Emax was 69.5

Short answer for O=C1COc2c(C(O)CNCCCc3ccc(C(F)(F)F)cc3)ccc(O)c2N1 (configuration not stated) : Emax was 132

Short answer for O=C1COc2c(C(O)CNCCCc3ccc(O)cc3)ccc(O)c2N1 (configuration not stated) : Emax was 181

Short answer for O=C1COc2c(C(O)CNCCc3ccc(F)cc3)ccc(O)c2N1 (configuration not stated) : Emax was 76.7

Short answer for O=C1COc2c(C(O)CNCCCc3cccc(F)c3)ccc(O)c2N1 (configuration not stated) : Emax was 126

Short answer for O=C1COc2c(C(O)CNCCCc3ccccc3F)ccc(O)c2N1 (configuration not stated) : Emax was 90.5

Short answer for O=C1COc2c(C(O)CNCCc3cccc(Cl)c3)ccc(O)c2N1 (configuration not stated) : Emax was 65.3

Short answer for O=C1COc2c(C(O)CNCCC(c3ccccc3)c3ccccc3)ccc(O)c2N1 (configuration not stated) : Emax was 63.3

Short answer for O=C1COc2c(C(O)CNCCCc3ccccc3)ccc(O)c2N1 (configuration not stated) : Emax was 237

Short answer for COc1ccc(CCNCC(O)c2ccc(O)c3c2OCC(=O)N3)cc1 (configuration not stated) : Emax was 59.6
